- Experimental target: 3-oxo-5-alpha-steroid 4-dehydrogenase 2 (Rattus norvegicus)
- Sequence (P31214 whole entry): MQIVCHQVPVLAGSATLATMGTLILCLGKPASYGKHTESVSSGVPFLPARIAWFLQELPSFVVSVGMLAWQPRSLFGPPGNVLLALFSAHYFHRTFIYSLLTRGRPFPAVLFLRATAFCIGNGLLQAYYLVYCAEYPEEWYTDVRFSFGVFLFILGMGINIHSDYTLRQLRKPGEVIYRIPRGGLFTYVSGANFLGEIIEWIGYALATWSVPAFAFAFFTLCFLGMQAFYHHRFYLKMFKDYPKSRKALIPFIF
pIC50: −log10 of the molar value.
Label rule, in plain words: pIC50 of 6 and up is TRUE, under 6 is FALSE.

Molecule: CC(C)(C)NC(=O)[C@H]1CC[C@H]2[C@@H]3CC[C@H]4NC(=O)C=C[C@]4(C)[C@H]3CC[C@]12C [FINASTERIDE]
Experimental target: 3-oxo-5-alpha-steroid 4-dehydrogenase 2 (Rattus norvegicus)
Class label: TRUE
--
Molecule: O=C(O)Cc1ccc(C=C2CCN(C(=O)C(C3CCCCC3)C3CCCCC3)CC2)c(F)c1
Experimental target: 3-oxo-5-alpha-steroid 4-dehydrogenase 2 (Rattus norvegicus)
Class label: TRUE
--
Molecule: O=C(O)c1ccc(C=C2CCN(C(=O)C(c3ccccc3)c3ccccc3)CC2)cc1
Experimental target: 3-oxo-5-alpha-steroid 4-dehydrogenase 2 (Rattus norvegicus)
Class label: TRUE
--
Molecule: O=C(O)c1ccc(C=C2CCN(C(=O)C(C3CCCCC3)C3CCCCC3)CC2)cc1
Experimental target: 3-oxo-5-alpha-steroid 4-dehydrogenase 2 (Rattus norvegicus)
Class label: TRUE
--
Molecule: O=C(O)c1ccc(C=C2CCN(C(=O)C34CC5CC(CC(C5)C3)C4)CC2)cc1
Experimental target: 3-oxo-5-alpha-steroid 4-dehydrogenase 2 (Rattus norvegicus)
Class label: FALSE
--
Molecule: O=C(O)c1ccc(C=C2CCN(C(=O)C(C3CCCCC3)C3CCCCC3)CC2)c(F)c1
Experimental target: 3-oxo-5-alpha-steroid 4-dehydrogenase 2 (Rattus norvegicus)
Class label: FALSE

###

- Experimental target: 3-oxo-5-alpha-steroid 4-dehydrogenase 2 (Rattus norvegicus) (UniProt P31214)
- Test summary: Inhibition of Steroid 5-alpha-reductase type 2 of rat ventral prostate (RVP)
- Set-up: concentration or dose not given beside the values
- Conditions: Prostate gland, concentration not given here
Quantity kind: inhibition (%)

Structure smiles: O=C(O)c1cccc(C=C2CCN(C(=O)C(c3ccccc3)c3ccccc3)CC2)c1
Display unit: %
Result: 43

Structure smiles: O=C(O)c1ccc(OC2CCN(C(=O)C34CC5CC(CC(C5)C3)C4)CC2)cc1
Display unit: %
Result: 21

Structure smiles: O=C(O)Cc1ccc(C=C2CCN(C(=O)C(c3ccccc3)c3ccccc3)CC2)cc1
Display unit: %
Result: 63

Structure smiles: O=C(O)c1cccc(C=C2CCN(C(=O)C(C3CCCCC3)C3CCCCC3)CC2)c1
Display unit: %
Result: 25

Structure smiles: O=C(O)c1ccc(OC2CCN(C(=O)N(c3ccccc3)c3ccccc3)CC2)cc1
Display unit: %
Result: 50

Structure smiles: CC(C)(C)OC(=O)N1CCC(Oc2ccc(C(=O)O)cc2)CC1
Display unit: %
Result: 12

Structure smiles: O=C(O)Cc1ccc(C=C2CCN(C(=O)C(C3CCCCC3)C3CCCCC3)CC2)cc1
Display unit: %
Result: 56

Structure smiles: COc1cc(C(=O)O)ccc1C=C1CCN(C(=O)C(C2CCCCC2)C2CCCCC2)CC1
Display unit: %
Result: 43

Structure smiles: O=C(O)c1ccc(OC2CCN(C(=O)C(c3ccccc3)c3ccccc3)CC2)cc1
Display unit: %
Result: 58

Structure smiles: COc1cc(C(=O)O)ccc1C=C1CCN(C(=O)C23CC4CC(CC(C4)C2)C3)CC1
Display unit: %
Result: 51
